# Assayed system: T1, RBFOX1 RRM (Homo sapiens, UniProt Q9NWB1 109-208)
# T1 sequence: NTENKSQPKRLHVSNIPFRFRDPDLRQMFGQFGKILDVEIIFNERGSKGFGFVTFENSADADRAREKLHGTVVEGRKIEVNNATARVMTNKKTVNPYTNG
# Experiment: EMSA; HiTS-Eq, 1 nM pool, 10 min; buffer printed only for the single-RNA assays: 10 mM Tris pH 7.5, 150 mM NaCl, 3.4 mM EDTA, 0.001% NP-40, 30 C
# Particulars: tags: His6 N-terminal (pET28a); label: 5' 32P
In all, about 16,000 sequences were measured (“ka relative to ugcaugu”: median about 0.0091, highest 2% from about 0.032 on). Only a selection was taken, and the highest values are over-represented in it overall.
Give measured binding signal for each item. Keep answers brief.

Record binding signal for all entries; do not skip any.
1. UGAUCCG (DNA:RNA) RNA: GGGAGACCGGAAUUCAGAUUGUCCUGAUCCGUUAAAUCCCGUCGUAGCCACCA DNA 1: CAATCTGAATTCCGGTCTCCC DNA 2: TGGTGGCTACGACGGGATT
2. UGCCUGC (DNA:RNA) RNA: GGGAGACCGGAAUUCAGAUUGUCCUGCCUGCUUAAAUCCCGUCGUAGCCACCA DNA 1: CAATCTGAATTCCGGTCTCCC DNA 2: TGGTGGCTACGACGGGATT
3. UGAUUGA (DNA:RNA) RNA: GGGAGACCGGAAUUCAGAUUGUCCUGAUUGAUUAAAUCCCGUCGUAGCCACCA DNA 1: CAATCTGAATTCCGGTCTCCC DNA 2: TGGTGGCTACGACGGGATT

1: 0.0149 KA relative to UGCAUGU; 2: 0.0698 KA relative to UGCAUGU; 3: 0.028 KA relative to UGCAUGU
